As an illustration, consider measured IC50 for compounds on CYP 2C9 (Homo sapiens).
Sequence (P11712 whole entry): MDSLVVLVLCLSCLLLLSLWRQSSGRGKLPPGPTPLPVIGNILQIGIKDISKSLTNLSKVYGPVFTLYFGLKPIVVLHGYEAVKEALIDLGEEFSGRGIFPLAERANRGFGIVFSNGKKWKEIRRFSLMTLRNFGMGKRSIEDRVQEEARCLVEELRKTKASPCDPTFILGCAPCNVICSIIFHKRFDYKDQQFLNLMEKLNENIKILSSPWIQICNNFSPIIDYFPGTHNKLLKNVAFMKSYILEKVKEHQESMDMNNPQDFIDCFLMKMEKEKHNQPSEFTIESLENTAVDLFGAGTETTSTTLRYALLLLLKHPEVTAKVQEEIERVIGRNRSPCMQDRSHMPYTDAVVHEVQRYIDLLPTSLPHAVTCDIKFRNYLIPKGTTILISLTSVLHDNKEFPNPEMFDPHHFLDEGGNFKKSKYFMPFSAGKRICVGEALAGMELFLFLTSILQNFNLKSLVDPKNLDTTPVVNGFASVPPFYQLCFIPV
Report as a plain number; the unit µM is understood.

{"compound": "CN(C)C/C=C/C(=O)Nc1cc2c(Nc3ccc(F)c(Cl)c3)ncnc2cc1O[C@H]1CCOC1 [Afatinib, reference compound]", "measurement.units": "µM", "IC50": 34.7}

Next up:
### Prompt Item under review: CN(C)C/C=C/C(=O)Nc1cc2c(Nc3cccc(Cl)c3F)ncnc2cc1OCCOC(F)F.O=C(O)/C=C\C(=O)O [Example I-5-MA] . Reported IC50?
### Response 30

---

Test: Microsomal stability
Assay type: in vitro ADME, mouse (CD-1, male)
Conditions: male, CD-1; Mouse liver microsomes with NADPH
Experimental: Working stocks were initially diluted to a concentration of 40.0 μM in 0.1 M potassium phosphate buffer before addition to the reaction vials. Pooled mouse (CD-1, male) or human (50 donors) liver microsomes were utilized at a final concentration of 0.5 mg/ml. […] Reactions were carried out at 37° C. in a shaker, and the final concentration of DMSO was kept constant at 0.01%. The final volume for each reaction was 100 μL, which includes the addition of an NADPH-Regeneration solution (NRS) mix. […]
Listed here: items and their measured half-life at 1 μM.
Report as a plain number; the unit min is understood.

{"structure.string": "CN(C)C/C=C/C(=O)Nc1cc2c(Nc3ccc(F)c(Cl)c3F)ncnc2cc1OCCOC(F)F.O=C(O)/C=C\\C(=O)O.O=C(O)/C=C\\C(=O)O", "reported.value": 35.2}

Next up:
### Prompt Item under review: O=C(/C=C/CN1CCCCC1)Nc1cc2c(Nc3ccc(F)c(Cl)c3F)ncnc2cc1OCCOC(F)F.O=C(O)/C=C\C(=O)O.O=C(O)/C=C\C(=O)O . Reported half-life at 1 μM?
### Response 57.8
